PROTOCOL_DESCRIPTION: yeast display, Sf9 membrane polyspecificity reagent, FACS + sequencing; frameworks hold sequencing errors

ITEM_SEQUENCE: QVQLVESGGGLVQAGGSRRLSCAASGSTFYGYAMGWYRQAPGKEREFVAAITTSGGSTYYADSVKGRFTISRDNAKNTVYLQMNSLKPEDTAVYYCAADGFYYDDGYWGQGTQVTVSS
polyreactivity (PSR sort gate): low polyreactivity
--
ITEM_SEQUENCE: QVQLVESGGGLVQAGGSLRLSCAASGRIFFANTMGWYRQAPGKERELVAAISLSSGSTYYADSVKGRFTISRDNAKNTVYLQMNSLKPEDTAVYYCAARGYSHVASRLYYYWGQGTQVTVSS
polyreactivity (PSR sort gate): high polyreactivity
--
ITEM_SEQUENCE: QVQLVESGGGLVQAGGSLRLSCAASGNIFAWYAMGGYRQAPGKERELVADISSRGGSTYYADSVKGRFTISRDNAKNTVYLQMNSLKPEDTAVYYCAAVWYWTQDYDYWGQGTQVTVSS
polyreactivity (PSR sort gate): low polyreactivity
--
ITEM_SEQUENCE: QVQLVESGGGLVQAGGSLRLSCAASGSIFQSYAMGWYIQAPGKERELVAAISARGGTTNYADSVKGRFTISRDNAKNTVYLQMNSLKPEDTAVYYCAKVYRYGYSKYYYWGQGTQVTVSS
polyreactivity (PSR sort gate): high polyreactivity
--
ITEM_SEQUENCE: QVQLVETGGGLVQAGGSLRLSCAASGRTFTRYAMGWYRQAPGKERELVAAISSSGASTYYADSVKGRFTISRDNAKNTVYLQMNSLKPEDTAVYYCAAKQTRPSGFGYWGQGTQVTVSS
polyreactivity (PSR sort gate): high polyreactivity
--
ITEM_SEQUENCE: QVQLVESGGGLVQAGGSLRLRCAASGSIFYRNAMGWYRQAPGTERELVAAISSDGSTNYADSVKGRFSISRDNAKNTVYLQMNSLKPEDTAVYYCNADYVQQVAKYQYGYEYGYWGQGTQVTVSS
polyreactivity (PSR sort gate): low polyreactivity
--
ITEM_SEQUENCE: QVQLVESGGGLVQAGGSLRLSCAASGSTFRYNLMGWYRQAPGKERELVAAISAVGSTYYADSVKGRFTISRDNAKNTVYLQMNSLKAEDTAVYYCAASYDWRAYRRDFYYWLTGDYWGQGTQVTVSS
polyreactivity (PSR sort gate): low polyreactivity
--
ITEM_SEQUENCE: QVQLVESGGGLVQAGGSLRLSCAASGSTFGTYAMGWYRQAPGKERELVAAISRRGGSTYYADSVKGRFTISRDNAKNTVYLQMNSLKTEDTAVYYCAARKFHPDDNYWGQGTQVTVSS
polyreactivity (PSR sort gate): high polyreactivity
--
ITEM_SEQUENCE: QVQLVESGGGLVHAGGSLRLSCSASGSTFGPYAMGWYRQAPGKERELVAAISSRGARTYYADSVKGRFTISRDNAKNTVYLQMNSLKPEDTAVYYCANTYHGTAYDYWGQGTQVTVSS
polyreactivity (PSR sort gate): high polyreactivity
--
ITEM_SEQUENCE: QVQLVESGGGLVQAGGSLRLSCAASGSIFYAYGMGWYRQAPGKERELVAAISSRGGSTHYADSVKGRFTISRDNAKNTVYLQMNSLKPEDTAVYYCAARHAYPYRRGDFNYWGQGTQVTVSS
polyreactivity (PSR sort gate): high polyreactivity
--
ITEM_SEQUENCE: QVQLVESGAGLVQAAGSLRLICASSGFILLDKAMGWYRQAPGKEREFVASINISGARTFYADSVKGRFTISRDTAKNTVYLQMNSLKPEDTAVYYCAKEPGWGRRSTTAYDYWGQGTQVTVSS
polyreactivity (PSR sort gate): low polyreactivity
--
ITEM_SEQUENCE: QVQLVESGGGLVQAGGSLRLSCAASGRIFILYGMGWYRQAPGKERELVAAIRWSGASTYYADSVKGRFTISRDNAKNTVYLQMNSLKPEDTAVYYCAATVGFTPSFWYSSKYDYWGQGTQVTVSS
polyreactivity (PSR sort gate): low polyreactivity
--
ITEM_SEQUENCE: QVQHVDSGGCLVQAGGTLRLSCAASGFTLWAYAMGWYRQAPGKEREFVAVISRSDGSTYYADSVKGRFTISRENAKNTVYLQMNSLKPEDSAVYYCAAKHRGAKYDYWGQGTQVTVSS
polyreactivity (PSR sort gate): low polyreactivity
--
ITEM_SEQUENCE: QVQLVESGGGLVQAGGSLRLSCAASGFTFPWYAMGWYRQAPGKERELVATITRGGSTYYADSVKGRFTISRDNAKNTVYLQMNSLKPEDTAVYYCAVTYWRYHSYSPYDYWGQGTQVTVSS
polyreactivity (PSR sort gate): high polyreactivity
--
ITEM_SEQUENCE: QVQLVESGGGLVQAGGSLRLSCAASGYIFRIYAMGWYRQAPGKERELVATITNGGSTHYADSVKGRFTISRDNAKNTVYLQMNSLKPEDTAVYYCAADLLYSEYDYWGQGTQVTVSS
polyreactivity (PSR sort gate): high polyreactivity
--
ITEM_SEQUENCE: LVQLVESGGGLVQAGGSLRLSCAASGRIFLKYAMGWYRQSPGKERELVAAISRRGASTYYADSVKGRFTISRDYGKNSVYLLMKSLKPDDTAVYYCNARTSSGMDYWGQGTQVTVSS
polyreactivity (PSR sort gate): high polyreactivity
--
ITEM_SEQUENCE: QVQLVDSGGGLVQAGGSLRLSCAASGLIFLYYAMGWYRQAPGKERELVAAISSSGSTYYADSVKGRFTISRDNAKNTVYLQMNSLKPEDTAVYYCAARWTRNYGMNYWGQGTQVTVSS
polyreactivity (PSR sort gate): high polyreactivity
--
ITEM_SEQUENCE: QVQLVESGGGIVQAGGSLRLSCAASGRIIRYYTMGWYRQAPGKERELVAAIRQRGGSTYYADSVKGRFTISRDNAKNTVYLHMNSLKREDTAVYYCNAVRRTTYDYWGQGTQVTVSS
polyreactivity (PSR sort gate): high polyreactivity
--
ITEM_SEQUENCE: QVQLLESGGGLVQSGGSLRVSCAASGSTFYAYSMGWYRQAPGKERELVAALDSGGSTYADSVKGRFPISRANAKHTVYLQMNSLKPEETAVYYCAADLITRSDYWWTGWIWEYDYWGQGTQVTVSS
polyreactivity (PSR sort gate): low polyreactivity
--
ITEM_SEQUENCE: QVQLVESGGGLVQAGGSLRLSCAASGRTFPRNGMGWYRPAPGQERELVAAIRYSGGSTYYADSVKGRFTISRDNAKNTVYLQMNSLKPEDTAVYYCAAEYRRALGVDYWGQGTQVTVSS
polyreactivity (PSR sort gate): high polyreactivity
--
ITEM_SEQUENCE: QVQLVETGGGLVQAGGSLRLSCAASGRIFEIYAMGWYRQAPGKERELVAAIDESGGSTYYADSVKGRFTISRDNGKNTVYLQMNSLKPEDTAVYYCATDDTWTITYGWYWFTYEYWGQCTQVTVSS
polyreactivity (PSR sort gate): low polyreactivity
